measuredTarget: USP28 (His-tagged USP28-FL-mammalian) (Homo sapiens)
Construct: Expression of USP28 (1-1077)-TEV-6*His (pTT5 vector); made in house; host or cells: Expi293f cells (pTT5 vector)
Sequence (Q96RU2 whole entry): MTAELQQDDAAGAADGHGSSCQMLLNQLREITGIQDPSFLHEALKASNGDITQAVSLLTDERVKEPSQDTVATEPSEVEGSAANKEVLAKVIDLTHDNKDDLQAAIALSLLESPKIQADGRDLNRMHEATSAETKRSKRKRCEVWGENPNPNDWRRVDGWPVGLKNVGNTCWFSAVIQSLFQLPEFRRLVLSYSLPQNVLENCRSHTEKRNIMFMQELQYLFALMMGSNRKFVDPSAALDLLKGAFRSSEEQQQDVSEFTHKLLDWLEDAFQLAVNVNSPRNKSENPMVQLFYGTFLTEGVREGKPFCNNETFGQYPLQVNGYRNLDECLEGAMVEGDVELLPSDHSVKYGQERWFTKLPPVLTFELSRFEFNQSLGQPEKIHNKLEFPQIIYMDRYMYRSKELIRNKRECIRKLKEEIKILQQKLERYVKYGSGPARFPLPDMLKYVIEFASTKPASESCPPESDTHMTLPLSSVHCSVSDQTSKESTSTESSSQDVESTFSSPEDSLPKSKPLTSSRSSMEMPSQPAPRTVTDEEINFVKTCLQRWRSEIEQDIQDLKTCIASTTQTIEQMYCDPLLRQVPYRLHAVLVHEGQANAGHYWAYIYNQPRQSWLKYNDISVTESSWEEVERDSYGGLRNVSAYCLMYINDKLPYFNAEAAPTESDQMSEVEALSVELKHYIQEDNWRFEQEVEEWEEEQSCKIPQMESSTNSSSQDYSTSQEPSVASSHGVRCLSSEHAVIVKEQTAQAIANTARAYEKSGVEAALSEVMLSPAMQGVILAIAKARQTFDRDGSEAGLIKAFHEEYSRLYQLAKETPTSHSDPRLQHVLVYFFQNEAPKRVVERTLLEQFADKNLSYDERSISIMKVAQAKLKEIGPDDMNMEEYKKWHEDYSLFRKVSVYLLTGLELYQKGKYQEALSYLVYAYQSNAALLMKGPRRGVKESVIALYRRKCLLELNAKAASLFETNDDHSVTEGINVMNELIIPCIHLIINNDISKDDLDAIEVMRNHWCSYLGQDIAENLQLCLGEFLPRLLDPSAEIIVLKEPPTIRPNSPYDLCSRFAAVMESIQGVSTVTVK
test: Ubiquitin-Rhodamine 110 Assay for USP28 Activity, Example A-1(a)
Assay type: biochemical
setupConditions: Ubiquitin-Rhodamine 110 assay, Example A-1(a); read-out: USP28 A-1(a) IC50 range
pIC50: −log10 of the molar value.
Kindly supply the reported pIC50 values for the records listed here.

Problem: Requested read-out: pIC50. Entry: Cc1ccc2c(N)c(C(=O)N[C@H]3COc4cc(N5C[C@H](C(F)F)[C@@H](N)C5)ccc4C3)sc2n1
Solution: 7.30 to 9.00

Problem: Requested read-out: pIC50. Entry: CO[C@H]1CN(c2ccc3c(c2)OC[C@H](NC(=O)c2sc4nc(C)ccc4c2N)C3)[C@@H](C)[C@@H]1N
Solution: 7.30 to 9.00

Problem: Requested read-out: pIC50. Entry: Cc1ccc2c(N)c(C(=O)N[C@H]3CCc4cc(N5CCNCC5)c(F)c(F)c4C3)sc2n1
Solution: 5.70 to 6.70

Problem: Requested read-out: pIC50. Entry: Cc1ccc2c(N)c(C(=O)N[C@H]3COc4cc(N5CC6CCC(C5)N6)c(C#N)c(F)c4C3)sc2n1
Solution: 7.30 to 9.00

Problem: Requested read-out: pIC50. Entry: CO[C@H]1CN(c2ccc3c(c2)OC[C@H](NC(=O)c2sc4nc(C)cnc4c2N)C3)C[C@H]1N
Solution: 7.30 to 9.00

Problem: Requested read-out: pIC50. Entry: Cc1ccc2c(N)c(C(=O)N[C@H]3CCc4nc(N5CC[C@@]6(C5)OCC[C@@H]6N)ccc4C3)sc2n1
Solution: 6.70 to 7.30

Problem: Requested read-out: pIC50. Entry: COC[C@H]1CN(c2ccc3c(c2)OC[C@H](NC(=O)c2sc4nc(C)ccc4c2N)C3)C[C@H]1N
Solution: 7.30 to 9.00

Problem: Requested read-out: pIC50. Entry: Cc1cnc2c(N)c(C(=O)N[C@@H]3CCc4cc(N5CCCNCC5)ccc4C3)sc2n1
Solution: 5.70 to 6.70

Problem: Requested read-out: pIC50. Entry: Cc1ccc2c(N)c(C(=O)N[C@H]3COc4cc(N5CCNCC5)cc(F)c4C3)oc2n1
Solution: 5.70 to 6.70

Problem: Requested read-out: pIC50. Entry: Cc1nc2sc(C(=O)N[C@H]3CCc4nc(N5CCNCC5)ccc4C3)c(N)c2cc1F
Solution: 7.30 to 9.00

Problem: Requested read-out: pIC50. Entry: CN[C@@H]1CN(c2ccc3c(n2)CC[C@H](NC(=O)c2sc4nc(C)ccc4c2N)C3)C[C@H]1C(F)F
Solution: 6.70 to 7.30

Problem: Requested read-out: pIC50. Entry: Cc1ccc2c(N)c(C(=O)N[C@H]3CCc4nc(N5C[C@H](N)[C@@]6(CCCO6)C5)ccc4C3)sc2n1
Solution: 6.70 to 7.30

Problem: Requested read-out: pIC50. Entry: CO[C@@H]1CN(c2cc(F)c3c(c2)OC[C@H](NC(=O)c2sc4nc(C)ccc4c2N)C3)C[C@@H]1N
Solution: 7.30 to 9.00

Problem: Requested read-out: pIC50. Entry: Cc1cnc2c(N)c(C(=O)N[C@H]3CCc4nc(N5CC6CC(C5)N6)ccc4C3)sc2n1
Solution: 5.70 to 6.70

Problem: Requested read-out: pIC50. Entry: CN[C@H]1CN(c2ccc3c(n2)CC[C@H](NC(=O)c2sc4nc(C)ccc4c2N)C3)C[C@@H]1OC
Solution: 6.70 to 7.30

Problem: Requested read-out: pIC50. Entry: Cc1ccc2c(N)c(C(=O)N[C@H]3COc4nc(N5CC6CNCC(C5)C6(F)F)ccc4C3)sc2n1
Solution: 7.30 to 9.00

Problem: Requested read-out: pIC50. Entry: CO[C@]1(C)CN(c2ccc3c(c2)OC[C@H](NC(=O)c2sc4nc(C)ccc4c2N)C3)C[C@H]1N
Solution: 7.30 to 9.00

Problem: Requested read-out: pIC50. Entry: Cc1cc(C)c2c(N)c(C(=O)N[C@H]3COc4cc(N5CC6CNCC(C5)O6)cc(F)c4C3)sc2n1
Solution: 7.30 to 9.00

Problem: Requested read-out: pIC50. Entry: Cc1ccc2c(N)c(C(=O)N[C@H]3COc4cc(N5C[C@H]6NCCC(F)(F)[C@H]6C5)ccc4C3)sc2n1
Solution: 7.30 to 9.00

Problem: Requested read-out: pIC50. Entry: CCO[C@H]1CN(c2ccc3c(c2)OC[C@H](NC(=O)c2sc4nc(C)ccc4c2N)C3)C[C@H]1N
Solution: 7.30 to 9.00

Problem: Requested read-out: pIC50. Entry: Cc1cnc2c(N)c(C(=O)N[C@@H]3CCc4cc(N5CC6CNCC(C5)O6)ccc4C3)sc2n1
Solution: 5.70 to 6.70

Problem: Requested read-out: pIC50. Entry: Cc1ccc2c(N)c(C(=O)N[C@H]3COc4nc(N5CC6CCC(C5)N6)ccc4C3)sc2n1
Solution: 6.70 to 7.30

Problem: Requested read-out: pIC50. Entry: Cc1ccc2c(N)c(C(=O)N[C@H]3CCc4nc(N5C[C@@H](N)[C@@H](C(F)F)C5)ccc4C3)sc2n1
Solution: 6.70 to 7.30

Problem: Requested read-out: pIC50. Entry: Cc1ccc2c(N)c(C(=O)N[C@H]3CCc4nc(N5CCN[C@H](C)C5)ccc4C3)sc2n1 (single isomer, unassigned)
Solution: 7.30 to 9.00

Problem: Requested read-out: pIC50. Entry: CO[C@H]1[C@@H](C)N(c2ccc3c(c2)OC[C@H](NC(=O)c2sc4nc(C)ccc4c2N)C3)C[C@@H]1N
Solution: 7.30 to 9.00

Problem: Requested read-out: pIC50. Entry: COC[C@H]1CN(c2ccc3c(c2)OC[C@H](NC(=O)c2sc4nc(C)ccc4c2N)C3)CCN1
Solution: 7.30 to 9.00

Problem: Requested read-out: pIC50. Entry: Cc1ccc2c(N)c(C(=O)N[C@H]3COc4cc(N5CC[C@H]6CNCC[C@H]65)ccc4C3)sc2n1
Solution: 7.30 to 9.00

Problem: Requested read-out: pIC50. Entry: COC[C@@H]1CN(c2ccc3c(n2)CC[C@H](NC(=O)c2sc4nc(C)ccc4c2N)C3)C[C@@H]1N (single isomer, unassigned)
Solution: 6.70 to 7.30

Problem: Requested read-out: pIC50. Entry: Cc1nc2sc(C(=O)N[C@H]3COc4c(F)c(N5CC6CCC(C5)N6)cc(F)c4C3)c(N)c2s1
Solution: 7.30 to 9.00
